B1: NET1 (parent)
chain: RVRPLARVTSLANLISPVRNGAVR

Variants of: B1
Test: protein stability index of a GFP-peptide fusion (GPS, HEK-293T) (PSI 1-6); higher = more stable;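 further: lentivirally expressed fusions sorted by FACS into six bins by GFP to DsRed ratio, PSI derived from sequencing read proportions per bin multiplied by bin number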
Conditions: c terminus: a fixed tail appended
# key: entry, value: protein stability index
Format: numeric value only, no unit, no commentary.

* A22H | 3.03
* L5D | 3.04

Then there is this variant:
**Query** Quick check: protein stability index of L14Q ?
**Result** 3.02
